# maps each entry to its Kd
studySystem: DN-IV quality control recombinant protein (produced by the company) (dengue virus)
testSummary: BLI, antibody on AMC sensor
Only the number, expressed in nM, is required.

Reference set (2 entries):
[[record]]
binder = "Mutation 1-44 (antibody, V domains shown) VH: EVQLQQPGPELVKPGASVKMSCKASGYTFTSYVIHWVRQKPGQGLEWIGYMNPYNDGLKYNEKFIGKAILTSDKSSSTAYMQLSSLTSEDSAVYYCTREGLFYVFDYWGQGTSVTVSS VL: QIVLTQSPAIMSASPGEKVTMTCSATSSVSYMHWYQQKSGTSPKRWIYDSSKLASGVPVRFSGSGSGTSYSLTISSMEAEDAATYFCQYWRSDLPTFGAGTKLELKR"
measuredvalue = 2.63

[[record]]
binder = "Mutation 1-13 (antibody, V domains shown) VH: EVQLQQPGPELVKPGASVKMSCKASGYTFTSSVIHWVRQKPGQGLEWIGYMNPYNDGLKYNEKFIGKAILTSDKSSSTAYMQLSSLTSEDSAVYYCTREGLFYVFDYWGQGTSVTVSS VL: QIVLTQSPAIMSASPGEKVTMTCSATSSLSYMHWYQQKSGTSPKRWIYDSSKLASGVPVRFSGSGSGTSYSLTISSMEAEDAATYFCQWWRSDLPTFGAGTKLELKR"
measuredvalue = 3.47


input: Given the binder WT 1-19 (antibody, V domains shown) VH: EVQLQQPGPELVKPGASVKMSCKASGYTVTSYVIHWVRQKPGQGLEWIGYMNAYNDGIKYNDKFIGKAILTSDKSSSTAYMQLSSLTSEDSAVYYCTKEGLFYVMDYWGQGTSVTVSS VL: QIVLTQSPAIMSASPGEKVTMTCSGTSSVSYMHWYQQKSGTSPKRWIYDSSKLASPVPVRFSGSGSGTSYSLTISSMEAEDAATYFCQQWRSVLPTFGAGTKLELKR , what is its reported Kd?
output: 35.4
